- Study system: human EHMT2 913-1193 (Homo sapiens, UniProt Q96KQ7)
- Sequence (Q96KQ7 913-1193): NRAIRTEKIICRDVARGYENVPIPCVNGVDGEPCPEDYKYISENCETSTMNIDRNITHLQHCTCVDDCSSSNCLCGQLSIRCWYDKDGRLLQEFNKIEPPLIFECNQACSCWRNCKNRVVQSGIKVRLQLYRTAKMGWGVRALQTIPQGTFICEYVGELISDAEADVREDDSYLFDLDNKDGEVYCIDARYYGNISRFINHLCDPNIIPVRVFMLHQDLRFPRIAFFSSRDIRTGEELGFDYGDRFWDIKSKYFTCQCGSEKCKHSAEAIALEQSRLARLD
- Method notes: EHMT2 enzyme assay on histone peptide substrate (3H-SAM SPA)
- Condition details: EHMT2 IC50, recombinant human EHMT2 913-1193, histone peptide substrate
I'd appreciate it if you could supply IC50 values for the items below.

Prompt line: Return IC50 (reported value) for this molecule: CNc1cc(C)nc(Nc2cc3c(c(C4=CCN(C)CCC4)c2)OCCO3)c1 [Compound 146]
Response line: 500 to 2000 nM

Prompt line: Complete the entry with IC50 for CNc1cc(C)nc(Nc2cc3c(c(C4=C[C@H]5CNC[C@H]5C4)c2)OCCC3)n1 [Compound 344]
Response line: 500 to 2000 nM

Prompt line: Specify IC50 for [2H]C([2H])([2H])CNc1cc(C)nc(Nc2cc3c(c(C4=CCN(C)CCC4)c2F)OCC3)n1 [Compound 217] and stop.
Response line: < 100 nM

Prompt line: Indicate the recorded IC50 value for this molecule: CNc1cc(C)nc(Nc2cc3c(c(C4=CCNCCC4)c2)CCO3)n1 [Compound 332]
Response line: 100 to 500 nM

Prompt line: Hello, please tell me recorded IC50 for this one: CNc1cc(C)nc(Nc2cc(OCCCN3CCCC3)c3c(c2)OCO3)c1 [Compound 147]
Response line: > 2000 nM

Prompt line: Read off the recorded IC50 for [2H]C([2H])([2H])Nc1cc(C)nc(Nc2cc3c(c(C4=CCN(C)CCC4)c2)OCO3)n1 [Compound 273]
Response line: 100 to 500 nM

Prompt line: Return value of IC50 for input CNc1cc(C)nc(Nc2cc3c(c(C4=CCN(C)CC(O)C4)c2F)OCC3)n1 (single isomer, unassigned) [Compound 352] , no commentary.
Response line: < 100 nM

Prompt line: Give IC50 for CNc1cc(C)nc(Nc2cc3c(c(C4=CCC(N)CC4)c2)OCC3)n1 (centres unmarked) [Compound 148]
Response line: > 2000 nM

* * *

- Tested on: H3K9me2 in HCT116 cells
- Method notes: HCT116 H3K9me2 in-cell western assay
- Assay type: cell-based
- Condition details: Homo sapiens, HCT-116, 72 h, HCT116 cells, 72 hours incubation; read-out: H3K9me2 ICW IC50
For each of the compounds below, state its IC50.

Prompt line: Give the value of IC50 reported for the following: CNc1cc(C)nc(Nc2cc3c(c(N4C[C@H]5CNC[C@H]5C4)c2F)OCC3)n1
Response line: 100 to 500 nM

Prompt line: Indicate its recorded IC50; the compound in question is CNc1cc(C)nc(Nc2cc3c(c(C4C[C@@H]5CN(C)C[C@@H]5C4)c2)OCCO3)n1 (some centres unmarked)
Response line: 100 to 500 nM

Prompt line: Dear colleague, please send me the reported IC50 for CNc1cc(C)nc(Nc2cc3c(c(C4=CCN(CCOC)CCC4)c2)OCO3)n1 when you can.
Response line: 100 to 500 nM

Prompt line: For the compound CNc1cc(C)nc(Nc2cc3c(c(C4=CCNCC(O)C4)c2C)OCCC3)n1 (single isomer, unassigned) , report IC50.
Response line: < 100 nM

Prompt line: Provide measured IC50 value, entry: CNc1cc(C)nc(Nc2cc3c(c(C4=CCNCC(O)C4)c2C)OCC3)n1 (single isomer, unassigned)
Response line: 100 to 500 nM

Prompt line: Determine from records and report IC50 for COCCNc1cc(C)nc(Nc2cc3c(c(C4=CCNCCC4)c2F)OCC3)n1
Response line: < 100 nM

Prompt line: Output measured IC50 for this item: CNc1cc(C)nc(Nc2cc3c(c(C4=CCN(C)CCC4)c2F)OCCC3C)n1 (single isomer, unassigned)
Response line: 100 to 500 nM

Prompt line: State its IC50: [2H]Cc1nc(Nc2cc3c(c(C4=CCNCCC4)c2)OCC3)nc(NC)c1F
Response line: 100 to 500 nM
